TARGET ENTITY: human A2B (Homo sapiens, UniProt P29275)
ASSAY SUMMARY: cAMP HTRF assay for Gs coupled receptor, agonist test
ASSAY CONDITIONS: agonist activity; HEK293 cells expressing recombinant human A2B; read-out: A2BAR EC50
OBSERVED PROPERTY: EC50 (nM)

Q: Specify the recorded EC50 for N#Cc1c(N)nc(SCc2cccnc2)c(C#N)c1-c1ccc(OCC(O)C(F)(F)F)cc1 (centres unmarked) [Compound 65] , system: human A2B (Homo sapiens, UniProt P29275).
Result: 1.9

Q: Jot down EC50 (human A2B (Homo sapiens, UniProt P29275)) of CC(=O)NCCSc1nc(N)c(C#N)c(-c2ccc(OCCO)cc2)c1C#N [Compound 119] .
Result: 925

Q: // fetch EC50; item: N#Cc1c(SCc2cncnc2)nc(N2CCC2)c(C#N)c1-c1ccc(OCCO)cc1 [Compound 23] ; system: human A2B (Homo sapiens, UniProt P29275)
Result: 420

P: N#Cc1cnc(SCc2cccnc2)c(C#N)c1-c1ccc(OC2COC2)cc1 [Compound 18]
Q: N#Cc1c(N)nc(SCc2nc3cc(Cl)ccc3s2)c(C#N)c1-c1ccc(OCCO)cc1 [Compound 208]
R: N#Cc1c(N)nc(SCc2cncnc2)c(C#N)c1-c1ccc(OCCO)cc1 [Compound 175]
S: CN(Cc1cccnc1)c1nc(N)c(C#N)c(-c2ccc(OCCO)cc2)c1C#N [Compound 160]
T: N#Cc1c(N)nc(SCc2cccnc2)c(C#N)c1-c1ccc(O[C@H]2C[C@H](O)C2)cc1 [Compound 295]
Q: Put the entries in order of EC50, starting with the largest number. Your answer should be the labels, listed in the requested order.
Result: P, Q, S, T, R

---

TARGET ENTITY: human A2B (Homo sapiens, UniProt P29275)
Sequence (P29275 1-332): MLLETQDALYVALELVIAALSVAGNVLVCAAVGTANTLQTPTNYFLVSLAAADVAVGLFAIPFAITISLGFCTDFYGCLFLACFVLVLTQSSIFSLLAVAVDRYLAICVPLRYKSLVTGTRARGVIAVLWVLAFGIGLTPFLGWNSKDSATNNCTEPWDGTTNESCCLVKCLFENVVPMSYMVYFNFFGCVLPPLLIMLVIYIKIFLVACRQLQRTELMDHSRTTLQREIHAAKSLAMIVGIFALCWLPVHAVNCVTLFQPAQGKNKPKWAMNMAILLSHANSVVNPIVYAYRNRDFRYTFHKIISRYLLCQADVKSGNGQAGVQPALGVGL
ASSAY SUMMARY: cAMP HTRF assay for Gs coupled receptor, agonist test
ASSAY CONDITIONS: agonist activity; HEK293 cells expressing recombinant human A2B; read-out: A2BAR EC50
OBSERVED PROPERTY: EC50 (nM)

Q: State, in one line, measured EC50 of N#Cc1c(N)nc(SCC2CCCOC2)c(C#N)c1-c1ccc(OC2COC2)cc1 (centres unmarked)
Result: 2490

Q: Dear colleague, please send me the reported EC50 for Cc1nc(SCCC(F)(F)F)c(C#N)c(-c2ccc(OCCO)cc2)c1C#N when you can.
Result: 42.6

A: CNC(=O)CSc1nc(N2CCCC2)c(C#N)c(-c2ccc(OCCOC)cc2)c1C#N
B: N#Cc1c(SCC2COC2)nc(N2CCC2)c(C#N)c1-c1ccc(OCCO)cc1
C: N#Cc1c(N)nc(SCC2COC2)c(C#N)c1-c1ccc(OCCO)cc1 [Compound 223]
D: N#Cc1c(N)nc(SCc2cccnc2)c(C#N)c1-c1ccc(OC(F)(F)CO)cc1
E: N#Cc1c(N)nc(SCc2cccnn2)c(C#N)c1-c1ccc(OC2COC2)cc1
Q: Provide the items ranked by increasing EC50. List each label, following the requested order.
Result: D, E, A, C, B

---

TARGET ENTITY: human Adenosine A1 receptor (Homo sapiens)
ASSAY SUMMARY: GTPγS scintillation proximity assay, agonist testing
ASSAY CONDITIONS: agonist activity; membrane extracts of CHO-K1 cells expressing recombinant human A1; read-out: A1AR EC50
pEC50: −log10 of the molar value.
OBSERVED PROPERTY: pEC50

1: CC(O)COc1ccc(-c2c(C#N)c(N)nc(SCC3COC3)c2C#N)cc1 (centres unmarked)
2: COCCOc1ccc(-c2c(C#N)c(N)nc(OCc3cccnc3)c2C#N)cc1
3: N#Cc1c(N)nc(NCc2cccnc2)c(C#N)c1-c1ccc(OCCO)cc1
Q: Ranking request: pEC50, max to min, items above. Give the order by naming the labels one after another as requested.
Result: 1, 2, 3
(1: 7.97, 2: 7.31, 3: 6.43)

1: COCCOc1ccc(-c2c(C#N)c(SCc3cccnc3)nc(N3CC(F)(F)C3)c2C#N)cc1
2: CC(O)CSc1nc(N2CCCC2)c(C#N)c(-c2ccc(OCCO)cc2)c1C#N (centres unmarked)
Q: Choose between 1 and 2 : whose measured pEC50 value is numerically larger? // respond with label for picked entry
Result: 1
(1: 7.01, 2: 6.30)

---

TARGET ENTITY: human Adenosine A1 receptor (Homo sapiens)
Sequence (P30542 1-326): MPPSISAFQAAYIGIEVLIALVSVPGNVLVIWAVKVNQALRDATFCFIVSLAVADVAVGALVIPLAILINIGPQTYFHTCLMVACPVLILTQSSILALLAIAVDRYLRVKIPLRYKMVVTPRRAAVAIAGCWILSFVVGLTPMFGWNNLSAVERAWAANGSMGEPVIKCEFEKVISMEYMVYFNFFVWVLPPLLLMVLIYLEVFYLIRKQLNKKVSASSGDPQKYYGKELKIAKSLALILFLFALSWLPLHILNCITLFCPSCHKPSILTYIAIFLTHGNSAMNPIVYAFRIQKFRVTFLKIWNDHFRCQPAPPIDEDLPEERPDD
ASSAY SUMMARY: GTPγS scintillation proximity assay, agonist testing
ASSAY CONDITIONS: agonist activity; membrane extracts of CHO-K1 cells expressing recombinant human A1; read-out: A1AR EC50
pEC50: −log10 of the molar value.
OBSERVED PROPERTY: pEC50

Take a look at these entries with their results.
Q: Supply pEC50 value. Item: COCCOc1ccc(-c2c(C#N)cnc(SCC3COC3)c2C#N)cc1
Result: 6.55

Q: Hello, please tell me recorded pEC50 for this one: N#Cc1c(SCC2COC2)nc(N2CCC2)c(C#N)c1-c1ccc(OC2COC2)cc1
Result: 7.14

P: N#Cc1c(N)nc(OCC2CCCOC2)c(C#N)c1-c1ccc(OC2COC2)cc1 (centres unmarked)
Q: CNc1nc(SCc2cccnc2)c(C#N)c(-c2ccc(OC(F)(F)CO)cc2)c1C#N
R: COCCOc1ccc(-c2c(C#N)c(SCc3ccccn3)nc(N3CC(F)C3)c2C#N)cc1
Q: # rank_down: sort by pEC50, max first Please reply with the labels ordered as requested. Many thanks.
Result: Q, R, P
(Q: 8.47, R: 7.48, P: 5.94)

---

TARGET ENTITY: human A2B (Homo sapiens, UniProt P29275)
ASSAY SUMMARY: cAMP HTRF assay for Gs coupled receptor, agonist test
ASSAY CONDITIONS: agonist activity; HEK293 cells expressing recombinant human A2B; read-out: A2BAR EC50
pEC50: −log10 of the molar value.
OBSERVED PROPERTY: pEC50

Q: Provide pEC50 value for the following molecule: CN(C)CCSc1nc(N)c(C#N)c(-c2ccc(OCCO)cc2)c1C#N [Compound 132]
Result: 6.19

Q: Supply recorded pEC50 for CNC(=O)CSc1nc(N)c(C#N)c(-c2ccc(OCCO)cc2)c1C#N [Compound 139] here.
Result: 8.35

Q: Report measured pEC50; entry is N#Cc1c(N)nc(SCc2cccc3[nH]ccc23)c(C#N)c1-c1ccc(OCCO)cc1 [Compound 8]
Result: 7.42

Q: Note pEC50 for the molecule shown: N#Cc1c(N)nc(NCc2cccnc2)c(C#N)c1-c1ccc(OCCO)cc1 [Compound 161]
Result: 6.80

Q: Provide only the value of recorded pEC50 for COCCOc1ccc(-c2c(C#N)c(C)nc(SCCC(F)(F)F)c2C#N)cc1 [Compound 47]
Result: 7.44

I: Cc1ncccc1CSc1nc(N2CCC2)c(C#N)c(-c2ccc(OCCO)cc2)c1C#N [Compound 77]
II: N#Cc1c(N)nc(SCc2cccnc2)c(C#N)c1-c1ccc(O[C@H]2CCOC2)cc1 [Compound 240]
Q: Higher pEC50: I or II ? Answer with the label corresponding to your selection.
Result: II

1: N#Cc1c(N)nc(SCC2CCCO2)c(C#N)c1-c1ccc(OCCO)cc1 (stereo not shown) [Compound 141]
2: N#Cc1c(SCc2cccnn2)nc(N2CCC2)c(C#N)c1-c1ccc(OCCO)cc1 [Compound 20]
3: N#Cc1c(N)nc(SCC2CCCOC2)c(C#N)c1-c1ccc(OCCO)cc1 (stereo not shown) [Compound 13]
Q: Reorder the items by pEC50, least to greatest. A ranking is expressed here by listing the labels in the requested order.
Result: 3, 1, 2
(3: 6.57, 1: 6.83, 2: 8.52)

A: Cc1ccc(CSc2nc(N3CCCC3)c(C#N)c(-c3ccc(OCCO)cc3)c2C#N)cn1 [Compound 70]
B: N#Cc1c(N)nc(SCc2cncc3[nH]ccc23)c(C#N)c1-c1ccc(OCCO)cc1 [Compound 2]
C: CC(O)COc1ccc(-c2c(C#N)c(N)nc(SCc3cccnc3)c2C#N)cc1 (stereo not shown) [Compound 56]
D: CCOCCSc1nc(N)c(C#N)c(-c2ccc(OCCO)cc2)c1C#N [Compound 27]
Q: Kindly order the items shown according to pEC50, from the highest value down. To answer, write out the labels according to the requested order.
Result: C, B, D, A

P: N#Cc1c(N)nc(SCc2cccnc2)c(C#N)c1-c1ccc(O[C@@H]2CCOC2)cc1 [Compound 236]
Q: N#Cc1c(N)nc(SCc2ccnnc2)c(C#N)c1-c1ccc(OCCO)cc1 [Compound 162]
Q: Between the two listed entries P and Q , which has its pEC50 at the higher number? Choose, then provide that item's label.
Result: Q
